Tested on: glucose-6-phosphate dehydrogenase [Leuconostoc mesenteroides]
Assay: bacterial G6PDH enzyme inhibition, coupled readout – biochemical, Leuconostoc mesenteroides enzyme, counter-screen for G6PDH-coupled screening assays (AID 1020)
Details: Purified L. mesenteroides G6PDH, diaphorase/resazurin coupled fluorescence, 45 min; at 5 µM; hits give high values
In all, about 200,000 compounds went through this assay and about 240 (0.12%) were called active. Only a selection was taken, and actives are over-represented in it overall.
Measured inhibition accompanies every entry in the list below.
Field: numeric (%). Do not append units.

Name the reported inhibition value associated with the compound "CSc1ccc(CNCCN2CCOCC2)cc1" 11

Name the reported inhibition value associated with the compound "CCN(CCCNC(=O)CSc1cc(=O)n(C)c2cc(Cl)ccc12)Cc1ccccc1" -6.2

Name the reported inhibition value associated with the compound COc1ccc(C(C(=O)NC2CCCCC2)N(C(=O)Cc2c[nH]c3ccccc23)c2ccccc2)cc1OC (stereo not given) 14.4

Name the reported inhibition value associated with the compound "Cc1cc(NS(=O)(=O)c2ccc(NC(=S)NC(=O)c3ccc(F)cc3Cl)cc2)no1" 7.4

Name the reported inhibition value associated with the compound CCC(C)NCC(=O)Nc1ccc([N+](=O)[O-])cc1C(=O)Nc1ccccc1F (stereo not given) 4.8

Name the reported inhibition value associated with the compound "CCOC(=O)/C(N=Nc1cc(C(=O)O)cc(C(=O)O)c1)=C(\O)CCl" -9.1

Name the reported inhibition value associated with the compound "Cc1cc(C)cc(C(=O)N2CCN=C2SCc2ccc([N+](=O)[O-])cc2)c1" -0.2

Name the reported inhibition value associated with the compound "Cc1ccc(C)c(-n2ccnc2SCC(N)=O)c1" 13.8

Name the reported inhibition value associated with the compound "COc1cccc(NC(=O)c2ccc3c(SCC(=O)O)c4c(nc3c2)CCCC4)c1" 6

Name the reported inhibition value associated with the compound "O=C(COC(=O)c1cc2c(s1)CCCC2)NCc1ccccc1Cl" -30.3

* * *

Tested on: glucose-6-phosphate dehydrogenase [Leuconostoc mesenteroides]
Test: bacterial G6PDH enzyme inhibition, coupled readout – biochemical, Leuconostoc mesenteroides enzyme, counter-screen for G6PDH-coupled screening assays (AID 1020)
Conditions: Purified L. mesenteroides G6PDH, diaphorase/resazurin coupled fluorescence, 45 min; at 5 µM
In all, about 200,000 compounds went through this assay and about 240 (0.12%) were called active. Cut-off read from the data, not from the text of the source: active = inhibition above about 50%; inactive = the rest. This excerpt belongs to a sample that is enriched for actives.
Respond with a class label; see Yes for active, No for inactive

Please review the entries below; each comes with its answer.
O=C(COc1ccc(S(=O)(=O)NCc2ccccc2)cc1)N1CCOCC1
No
CCOC(=O)c1ccc[n+](CC(=O)Nc2ccccc2OC(F)F)c1
No
COc1ccc(Cn2c(-c3ccc(Cl)cc3)c[n+]3ccccc23)cc1
No
Cc1onc(-c2ccccc2)c1C(=O)N1CCOCC1
No
CCOC(=O)c1cnc2[nH]c3ccccc3n2c1=O
No

Hi, sorry to bother you, what did the test record for CCOC(=O)N1CCN(C(c2cccnc2)c2ccc3cccnc3c2O)CC1 (centres undefined) ? No

Hi, sorry to bother you, what did the test record for "CC1=C/C(=N\S(=O)(=O)c2ccccc2)C(C(C)C)=CC1=O" ? No

* * *

System: glucose-6-phosphate dehydrogenase [Leuconostoc mesenteroides]
Experiment: bacterial G6PDH enzyme inhibition, coupled readout – biochemical, Leuconostoc mesenteroides enzyme, counter-screen for G6PDH-coupled screening assays (AID 1020)
Conditions: Purified L. mesenteroides G6PDH, diaphorase/resazurin coupled fluorescence, 45 min; at 5 µM; hits give high values
The whole screen tested about 200,000 compounds, of which about 240 (0.12%) were called active. The list comes from a sample in which actives are over-represented; it also holds close analogues and randomly drawn compounds.
attribute-measured: inhibition (%)
Field: numeric (%). Do not append units.

Name the reported inhibition value associated with the compound "COC(=O)Cc1ccc(NC(=S)NCc2ccccc2)cc1" 12.1

Name the reported inhibition value associated with the compound "Cc1nn(-c2ccccc2)c(C)c1/C=N/NC(=O)CSc1nc2ccccc2c(=O)n1-c1ccccc1" -5.5

* * *

Measured inhibition accompanies every entry in the list below.
Tested on: glucose-6-phosphate dehydrogenase [Leuconostoc mesenteroides]
Test: bacterial G6PDH enzyme inhibition, coupled readout – biochemical, Leuconostoc mesenteroides enzyme, counter-screen for G6PDH-coupled screening assays (AID 1020)
Conditions: Purified L. mesenteroides G6PDH, diaphorase/resazurin coupled fluorescence, 45 min; at 5 µM; hits give high values
About 240 (0.12%) of roughly 200,000 compounds were called active. Many of the other results were omitted from the sample, so actives are more common in it than they were.
Field: numeric (%). Do not append units.

Consider the worked cases shown below.
CC(=O)n1cc([C@H]2C=C(C(=O)N3CCOCC3)O[C@@H](OCc3ccc(CO)cc3)C2)c2ccccc21
13.3
CCc1ccc(N2CC(O)=C(c3nc4ccccc4c(=O)[nH]3)C2=N)cc1
16.2
O=C(COC(=O)C1CC2C=CC1C2)Nc1ccccc1 (stereo unspecified)
5.8
O=C1NC(c2ccccc2)CCC1(Cl)Cl (stereo unspecified)
-1
COC(=O)C1=NNC2(c3ccc(C)cc3)C(=O)N(c3cccc(C)c3C)C(=O)C12 (stereo unspecified)
5.9
N#Cc1ncc(C(F)(F)F)cc1Oc1cccnc1
1.5
O=C(c1cn2ccccc2n1)N1CCc2c([nH]c3ccccc23)C1c1ccccn1 (stereo unspecified)
16.7
Cc1ccc(-c2nc(C)sc2CC(=O)OCC(=O)Nc2c(F)cccc2F)cc1
-6.1

Name the reported inhibition value associated with the compound Cc1ccccc1C(=O)OC1OC(=O)C(Cl)=C1Nc1ccccc1 (stereo unspecified) 2.3

Name the reported inhibition value associated with the compound "Nc1ncnc(Nc2cccc(Cl)c2Cl)n1" 15

Name the reported inhibition value associated with the compound "CCc1nc(C)cn1S(=O)(=O)c1cc([N+](=O)[O-])ccc1Cl" 6.7

* * *

Tested on: glucose-6-phosphate dehydrogenase [Leuconostoc mesenteroides]
Assay: bacterial G6PDH enzyme inhibition, coupled readout – biochemical, Leuconostoc mesenteroides enzyme, counter-screen for G6PDH-coupled screening assays (AID 1020)
Conditions: Purified L. mesenteroides G6PDH, diaphorase/resazurin coupled fluorescence, 45 min; at 5 µM; hits give high values
In all, about 200,000 compounds went through this assay and about 240 (0.12%) were called active. The entries come from a sample that favours actives as a whole.
Measured inhibition accompanies every entry in the list below.
Field: numeric (%). Do not append units.

Consider the worked cases shown below.
O=C(N/N=C/c1ccco1)c1ccc(C(=O)N/N=C/c2ccco2)o1
2.5
CCOc1ccc(C(=O)Nc2cccc(-c3ccc4nncn4n3)c2)cc1
2.6

Here is another compound to look at.
Name the reported inhibition value associated with the compound "CN1CCN(CC#CCC2(O)c3ccccc3-c3ccccc32)CC1" 4.1

* * *

Measured inhibition accompanies every entry in the list below.
Test system: glucose-6-phosphate dehydrogenase [Leuconostoc mesenteroides]
Test: bacterial G6PDH enzyme inhibition, coupled readout – biochemical, Leuconostoc mesenteroides enzyme, counter-screen for G6PDH-coupled screening assays (AID 1020)
Conditions: Purified L. mesenteroides G6PDH, diaphorase/resazurin coupled fluorescence, 45 min; at 5 µM; hits give high values
Screen size: about 200,000 compounds; about 240 (0.12%) were called active. Shown is part of a subset that was picked to be rich in actives.

CCC(C)(C)NC(=O)C1c2ccccc2Oc2ccccc21
3.6% (inactive)
Cc1cccc(OCCC(=O)Nc2cc(S(=O)(=O)N3CCCCC3)ccc2N2CCOCC2)c1
5.4% (inactive)

Here is another compound to look at.
Name the reported inhibition value associated with the compound CC1CCCCN1C(=S)NCc1ccccc1 (stereo not drawn) -13% (inactive)

* * *

Tested on: glucose-6-phosphate dehydrogenase [Leuconostoc mesenteroides]
Assay: bacterial G6PDH enzyme inhibition, coupled readout – biochemical, Leuconostoc mesenteroides enzyme, counter-screen for G6PDH-coupled screening assays (AID 1020)
Conditions: Purified L. mesenteroides G6PDH, diaphorase/resazurin coupled fluorescence, 45 min; at 5 µM
The campaign covered roughly 200,000 compounds. About 240 (0.12%) were called active. Rule as the data show it: active = inhibition above about 50%; inactive = the rest. Shown is part of a subset that was picked to be rich in actives.
Respond with a class label; see TRUE (active), FALSE (inactive)

Please review the entries below; each comes with its answer.
C=CCn1c(CCNC(=O)c2ccccc2F)nnc1SCC(=O)Nc1ccc(OC)cc1
FALSE
Oc1c(C(c2ccccn2)N2CCOCC2)ccc2cccnc12 (configuration not stated)
TRUE
COc1ccccc1N=Cc1c(O)c2ccccc2oc1=O
FALSE

Hi, sorry to bother you, what did the test record for "CCOc1ccccc1N1CCN(C(=O)COc2ccc3c(C)cc(=O)oc3c2)CC1" ? FALSE

Hi, sorry to bother you, what did the test record for "O=C(N/N=C/c1sc(N2CCCCC2)nc1-c1cccs1)c1cccnc1" ? FALSE

Hi, sorry to bother you, what did the test record for "O=C(COC(=O)c1cnccn1)Nc1cccc2ccccc12" ? FALSE

Hi, sorry to bother you, what did the test record for "O=[N+]([O-])c1cccc(-c2nnc3c4ccccc4c4ccccc4n23)c1" ? FALSE

Hi, sorry to bother you, what did the test record for "O=c1[nH]c2ccccc2n2c(-c3ccccc3)nnc12" ? TRUE

Hi, sorry to bother you, what did the test record for "Cc1cccc(-n2c(SCC(N)=O)nc3c(c2=O)C2(CCCCC2)Cc2ccccc2-3)c1" ? FALSE
